Recorded values, source ChEMBL document CHEMBL5247652.

- Assay summary: Drug concentration in C57BL/6 mouse plasma at 20 mg/kg, ip measured after 4 hrs
- Type: ADME, organism-based
Readout type: concentration at 4 h (µM)
One number for each entry, in µM.

### Prompt Fill in the blank: the reported concentration at 4 h of Cc1c(C(=O)N[C@H](CCC2CC2)C(=O)Nc2ccc(C#N)cc2)[nH]c2c1C(=O)CC(C)(C)C2 is ____.
### Response 9.6

* * *

Assign half-life to each entry below.
- Assay summary: Half life in ICR mouse at 25 mg/kg, ip
- Type: ADME, organism-based
- Measurement conditions: in vivo
One number for each entry, in min.

INSERT INTO assay_data (compound, measurement_units, observed_measurement) VALUES
  ('Cc1c(C(=O)N[C@H](CCC2CC2)C(=O)Nc2ccccc2)[nH]c2c1C(=O)CC(C)(C)C2', 'min', 34.8);

Now look at this one.
### Prompt Value lookup for half-life; key = Cc1c(C(=O)N[C@H](CCC2CC2)C(=O)Nc2ccc(C#N)cc2)[nH]c2c1C(=O)CC(C)(C)C2
### Response 84

* * *

Would you mind telling me the reported log10 solubility at 1 h of each entry?
- Assay summary: Aqueous solubility of compound at pH 7.4 measured for 1 hr by UV-plate reader analysis
- Assay type: physicochemical
- Measurement conditions: buffer
Hello, just confirming the data are log10 of solubility at 1 h with units of µM.

# count of solved cases: 3
INSERT INTO assay_data (compound, observed_measurement) VALUES
  ('Cc1ccc(NC(=O)[C@@H](CCC2CC2)NC(=O)c2[nH]c3c(c2C)C(=O)CC(C)(C)C3)cn1', 1.71),
  ('CCCCC(NC(=O)c1[nH]c2c(c1C)C(=O)CC(C)(C)C2)C(=O)NC1CCCCC1 (racemic)', 1.18),
  ('CCCCC(NC(=O)c1[nH]c2c(c1C)C(=O)CC(C)(C)C2)C(=O)Nc1ccccc1Cl (racemic)', 1.14);

Respectfully, I request log10 solubility at 1 h for each entry included below.
1. CCc1c(C(=O)N[C@@H](CCC2CC2)C(=O)Nc2ccc(C#N)cc2)[nH]c2c1C(=O)CC(C)(C)C2
2. CCCCC(NC(=O)c1[nH]c2c(c1C)C(=O)CC(C)(C)C2)C(=O)Nc1ccccc1C#N (racemic)
3. CCCCC(NC(=O)c1[nH]c2c(c1C)C(=O)CC(C)(C)C2)C(=O)Nc1ccccn1 (racemic)
4. CC(C)c1c(C(=O)N[C@@H](CCC2CC2)C(=O)Nc2ccc(C#N)cc2)[nH]c2c1C(=O)CC(C)(C)C2
5. Cc1c(C(=O)N[C@@H](CCC2CC2)C(=O)Nc2ccccc2)[nH]c2c1C(=O)CC(C)(C)C2

### Response
1: 0.60; 2: 1.19; 3: 1.79; 4: 0.57; 5: 1.51

Kindly give each listed record's log10 solubility at 1 h.
1. CCCCC(NC(=O)c1[nH]c2c(c1C)C(=O)CC(C)(C)C2)C(=O)Nc1ccc(C)cc1 (racemic)
2. CCCCC(NC(=O)c1[nH]c2c(c1C)C(=O)CC(C)(C)C2)C(=O)Nc1ccccc1 (racemic)
3. Cc1c(C(=O)N[C@@H](CCC2CC2)C(=O)Nc2ccc(C#N)cc2)[nH]c2c1C(=O)CC(C)(C)C2
4. CCCCC(NC(=O)c1[nH]c2c(c1C)C(=O)CC(C)(C)C2)C(=O)N(C)c1ccccc1 (racemic)
5. CCCCC(NC(=O)c1[nH]c2c(c1C)C(=O)CC(C)(C)C2)C(=O)Nc1cccc(C#N)c1 (racemic)
6. CCCCC(NC(=O)c1[nH]c2c(c1C)C(=O)CC(C)(C)C2)C(=O)Nc1cccc(OC)c1 (racemic)
7. CCCCC(NC(=O)c1[nH]c2c(c1C)C(=O)CC(C)(C)C2)C(=O)Nc1cccc(Cl)c1 (racemic)

### Response
[0.26, 1.30, 1.13, 0.69, 1.16, 0.48, 0.65]

### Prompt Look up log10 solubility at 1 h for this compound: CCCCC(NC(=O)c1[nH]c2c(c1C)C(=O)CC(C)(C)C2)C(=O)Nc1ccc(C(N)=O)cc1 (racemic)
### Response 2.02
